Tested on: skin
Assay Summary: Affymetrix microarray of skin, DBP-4 hr and analogs vs. untreated; gene selection by log-2 fold change, Wilcoxon, Kendall tau (Tables 8, 9)
Type: in vivo, mouse
Experimental Setup: gene #67 of Table 8
Please provide measured Log2 Expression Level for the entries that follow.

API: value(readout=Log2 Expression Level, system=skin) for record CCCCOC(=O)c1ccccc1C(=O)OCCCC [DBP, dibutylphthalate] 5.48

API: value(readout=Log2 Expression Level, system=skin) for record COC(=O)c1ccccc1C(=O)OC [DMP, dimethylphthalate] 4.20

API: value(readout=Log2 Expression Level, system=skin) for record CC(C)=O 4.12

API: value(readout=Log2 Expression Level, system=skin) for record CCN(CC)C(=O)c1cccc(C)c1 [DEET, N,N-diethyl-toluamide] 5.71

API: value(readout=Log2 Expression Level, system=skin) for record CCOC(=O)c1ccccc1C(=O)OCC [DEP, diethylphthalate] 4.52

* * *

Tested on: skin
Assay Summary: Affymetrix microarray of skin, DBP-4 hr and analogs vs. untreated; gene selection by log-2 fold change, Wilcoxon, Kendall tau (Tables 8, 9)
Assay type: in vivo, mouse
Experimental Setup: gene #98 of Table 8
Property: Log2 Expression Level
Give your answer as a number; write no unit.

Give its Log2 Expression Level value. Item: CCN(CC)C(=O)c1cccc(C)c1 [DEET, N,N-diethyl-toluamide] 6.82

Give its Log2 Expression Level value. Item: CC(C)=O 4.29

Give its Log2 Expression Level value. Item: CCCCOC(=O)c1ccccc1C(=O)OCCCC [DBP, dibutylphthalate] 5.99

Give its Log2 Expression Level value. Item: CCOC(=O)c1ccccc1C(=O)OCC [DEP, diethylphthalate] 5.94

Give its Log2 Expression Level value. Item: COC(=O)c1ccccc1C(=O)OC [DMP, dimethylphthalate] 4.12

* * *

Please provide measured Log2 Expression Level for the entries that follow.
Test system: skin
Assay Summary: Affymetrix microarray of skin, DBP-4 hr and analogs vs. untreated; gene selection by log-2 fold change, Wilcoxon, Kendall tau (Tables 8, 9)
Assay type: in vivo, mouse
Experimental Setup: gene #87 of Table 8
Give your answer as a number; write no unit.

API: value(readout=Log2 Expression Level, system=skin) for record CCOC(=O)c1ccccc1C(=O)OCC [DEP, diethylphthalate] 7.01

API: value(readout=Log2 Expression Level, system=skin) for record CCN(CC)C(=O)c1cccc(C)c1 [DEET, N,N-diethyl-toluamide] 11.32

API: value(readout=Log2 Expression Level, system=skin) for record COC(=O)c1ccccc1C(=O)OC [DMP, dimethylphthalate] 8.57

API: value(readout=Log2 Expression Level, system=skin) for record CCCCOC(=O)c1ccccc1C(=O)OCCCC [DBP, dibutylphthalate] 9.56

API: value(readout=Log2 Expression Level, system=skin) for record CC(C)=O 8.85

* * *

Test system: skin
Assay Summary: Affymetrix microarray of skin, DBP-4 hr and analogs vs. untreated; gene selection by log-2 fold change, Wilcoxon, Kendall tau (Tables 8, 9)
Format: in vivo, mouse
Experimental Setup: gene #12 of Table 8
Please provide measured Log2 Expression Level for the entries that follow.
Give your answer as a number; write no unit.

Give its Log2 Expression Level value. Item: CC(C)=O 5.07

Give its Log2 Expression Level value. Item: CCCCOC(=O)c1ccccc1C(=O)OCCCC [DBP, dibutylphthalate] 6.26

Give its Log2 Expression Level value. Item: CCN(CC)C(=O)c1cccc(C)c1 [DEET, N,N-diethyl-toluamide] 6.76

Give its Log2 Expression Level value. Item: CCOC(=O)c1ccccc1C(=O)OCC [DEP, diethylphthalate] 6.55

Give its Log2 Expression Level value. Item: COC(=O)c1ccccc1C(=O)OC [DMP, dimethylphthalate] 5.32

This collection of values is drawn from patent US20150307938A1.
